Molecular target: CGRP receptor (CALCRL/RAMP1) (Homo sapiens)
Test: Displacement of [125I]CGRP from CGRP receptor in human SK-N-MC cells after 2 hrs by scintillation counter
pIC50: −log10 of the molar value.
measure name: pIC50

(I) Cc1cc(C[C@@H](NC(=O)N2CCC(c3cc4ccccc4cc3Cl)CC2)C(=O)N2CCC(N3CCCCC3)CC2)cc2cn[nH]c12
(II) Cc1ccc(C2CCN(C(=O)N[C@H](Cc3cc(C)c4[nH]ncc4c3)C(=O)N3CCC(N4CCCCC4)CC3)CC2)cc1
(III) Cc1cc(C[C@@H](NC(=O)N2CCN(c3ccc(-c4ccccc4)cc3)CC2)C(=O)N2CCC(N3CCCCC3)CC2)cc2cn[nH]c12
(IV) Cc1ccc(C2CCN(C(=O)N[C@H](Cc3cc(C)c4[nH]ncc4c3)C(=O)N3CCC(N4CCCCC4)CC3)CC2)c(Cl)c1
Q) Put the items in order so that reported pIC50 rises from first to last. // rank by listing labels in the order requested
A) II, III, IV, I

###

Assay: Permeability of compound by PAMPA
Format: ADME
Settings: read-out: permeability
measure name: Papp (×10⁻⁶ cm/s)

(1) Cc1ccc(C2CCN(C(=O)N[C@H](Cc3cc(C)c4[nH]ncc4c3)C(=O)N3CCC(N4CCCCC4)CC3)CC2)c(Cl)c1
(2) Cc1cc(C[C@@H](NC(=O)N2CCN(c3ccccc3Br)CC2)C(=O)N2CCC(N3CCCCC3)CC2)cc2cn[nH]c12
(3) Cc1cc(C[C@@H](NC(=O)N2CCN(c3cccc(Cl)c3)CC2)C(=O)N2CCC(N3CCCCC3)CC2)cc2cn[nH]c12
(4) Cc1cc(C[C@@H](NC(=O)N2CCC(c3ccc(Cl)cc3Cl)CC2)C(=O)N2CCC(N3CCCCC3)CC2)cc2cn[nH]c12
Q) Ascending by Papp, please: list the compounds accordingly. Give your ranking as a list of the labels in the requested order.
A) 4, 2, 3, 1

###

Target: CGRP receptor (CALCRL/RAMP1) (Homo sapiens)
Assay: Displacement of [125I]CGRP from CGRP receptor in human SK-N-MC cells after 2 hrs by scintillation counter
pIC50: −log10 of the molar value.
measure name: pIC50

Record excerpt, results attached:
| molecule | pIC50 |
| --- | --- |
| Cc1cc(C[C@@H](NC(=O)N2CCC(c3cccc(Br)c3)CC2)C(=O)N2CCC(N3CCCCC3)CC2)cc2cn[nH]c12 | 6.89 |
| Cc1cc(C[C@@H](NC(=O)N2CCN(c3ccc(Cl)cc3)CC2)C(=O)N2CCC(N3CCCCC3)CC2)cc2cn[nH]c12 | 7.11 |
| Cc1cc(C[C@@H](NC(=O)N2CCN(c3ccc(C#N)cc3)CC2)C(=O)N2CCC(N3CCCCC3)CC2)cc2cn[nH]c12 | 7.00 |
| CCOC(=O)c1ccc(N2CCN(C(=O)N[C@H](Cc3cc(C)c4[nH]ncc4c3)C(=O)N3CCC(N4CCCCC4)CC3)CC2)cc1 | 7.36 |
| Cc1cc(C[C@@H](NC(=O)N2CCC(c3ccc(F)cc3F)CC2)C(=O)N2CCC(N3CCCCC3)CC2)cc2cn[nH]c12 | 7.04 |

(I) COC(=O)c1ccccc1N1CCN(C(=O)N[C@H](Cc2cc(C)c3[nH]ncc3c2)C(=O)N2CCC(N3CCCCC3)CC2)CC1
(II) Cc1cc(C[C@@H](NC(=O)N2CCN(c3ccc(F)cc3S(C)(=O)=O)CC2)C(=O)N2CCC(N3CCCCC3)CC2)cc2cn[nH]c12
Q) Which numeric pIC50 is bigger, that of I or that of II ? Use the label to indicate which entry you chose.
A) II
(II: 8.54, I: 6.96)

(1) Cc1cc(C[C@@H](NC(=O)N2CCN(c3ccc(S(C)(=O)=O)cc3Cl)CC2)C(=O)N2CCC(N3CCCCC3)CC2)cc2cn[nH]c12
(2) Cc1cc(C[C@@H](NC(=O)N2CCN(c3ccccc3)CC2)C(=O)N2CCC(N3CCCCC3)CC2)cc2cn[nH]c12
Q) Between 1 and 2 , which one shows the smaller pIC50 number? Respond with the label that goes with your answer.
A) 2

(a) Cc1cc(C[C@@H](NC(=O)N2CCC(c3cccc(Cl)c3)CC2)C(=O)N2CCC(N3CCCCC3)CC2)cc2cn[nH]c12
(b) Cc1cc(C[C@@H](NC(=O)N2CCC(c3ccc(Cl)cc3)CC2)C(=O)N2CCC(N3CCCCC3)CC2)cc2cn[nH]c12
(c) Cc1cc(C[C@@H](NC(=O)N2CCN(c3ccccc3C#N)CC2)C(=O)N2CCC(N3CCCCC3)CC2)cc2cn[nH]c12
(d) Cc1cc(C[C@@H](NC(=O)N2CCC(c3cccc4ccccc34)CC2)C(=O)N2CCC(N3CCCCC3)CC2)cc2cn[nH]c12
Q) Given 4 compounds, produce a descending ranking by pIC50. When ranking, write the labels in the order the request describes.
A) c, b, a, d

(1) Cc1cc(C[C@@H](NC(=O)N2CCN(c3ccc(Cl)c(Cl)c3)CC2)C(=O)N2CCC(N3CCCCC3)CC2)cc2cn[nH]c12
(2) Cc1cccc(C2CCN(C(=O)N[C@H](Cc3cc(C)c4[nH]ncc4c3)C(=O)N3CCC(N4CCCCC4)CC3)CC2)c1F
Q) // compare: 1 vs 2 , metric pIC50, want the smaller Answer = label.
A) 2
(2: 6.92, 1: 7.92)
